Origin of the recorded values: ChEMBL document CHEMBL1135370

# Study target: Tissue-type plasminogen activator (Homo sapiens, UniProt P00750)
# Sequence (P00750 36-562 limits assumed): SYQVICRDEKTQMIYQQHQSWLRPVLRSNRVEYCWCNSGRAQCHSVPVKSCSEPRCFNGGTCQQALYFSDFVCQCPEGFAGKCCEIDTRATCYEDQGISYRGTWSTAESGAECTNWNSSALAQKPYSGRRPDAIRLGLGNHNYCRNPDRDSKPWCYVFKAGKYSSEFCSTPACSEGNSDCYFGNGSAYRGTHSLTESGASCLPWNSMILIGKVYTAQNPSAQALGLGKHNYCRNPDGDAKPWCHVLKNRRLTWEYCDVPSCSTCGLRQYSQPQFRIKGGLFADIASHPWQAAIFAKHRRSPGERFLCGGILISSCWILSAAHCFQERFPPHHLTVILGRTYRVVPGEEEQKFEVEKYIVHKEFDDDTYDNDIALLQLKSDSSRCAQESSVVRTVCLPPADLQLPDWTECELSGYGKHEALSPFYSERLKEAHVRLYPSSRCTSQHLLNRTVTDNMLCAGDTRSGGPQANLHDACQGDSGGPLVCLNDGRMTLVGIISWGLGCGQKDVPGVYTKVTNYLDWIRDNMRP
# Run description: Ability to inhibit tissue plasminogen activator (quadratech) and S-2444 as substrate at concentration of 1 mM
Attribute: inhibition

>>> df
                    structure_as_smiles                              study_target  measured_value
0  N=C(N)Nc1ncc(Cl)cc1OCC(=O)NCc1ccccc1  Tissue-type plasminogen activator (Homo sapiens, UniProt P00750)           < 50%

In: Give inhibition (Tissue-type plasminogen activator (Homo sapiens, UniProt P00750)) of the following molecule: N=C(N)Nc1ncc(Cl)cc1OCC(=O)O
Out: < 50%

In: Follow-up entry: N=C(N)Nc1ncc(Cl)cc1/C=C/C(=O)N1CCOCC1
Out: < 50%

----------
# Study target: Urokinase-type plasminogen activator (Homo sapiens, UniProt P00749)
# Run description: In vitro inhibition of human urokinase Plasminogen Activator.
pKi: −log10 of the molar value.
Measured property: pKi

                       structure_as_smiles                              study_target  measured_property  measured_value
0  N=C(N)Nc1ncc(Cl)cc1/C=C/C(=O)NCc1ccccc1  Urokinase-type plasminogen activator (Homo sapiens, UniProt P00749)                pKi            6.11

(A) CNC(=O)/C=C/c1cc(Cl)cnc1N=C(N)N
(B) N=C(N)Nc1ncc(Cl)cc1-c1ccccc1
(C) N=C(N)Nc1ncc(Cl)cc1/C=C/c1ccc2c(c1)OCO2
In: Sort low-to-high on pKi, please. Answer with the labels in sequence, matching the requested order.
Out: B, A, C
(B: 3.78, A: 5.89, C: 6.31)

----------
# Study target: UniProt P00747
# Sequence (P00747 97-580 limits assumed): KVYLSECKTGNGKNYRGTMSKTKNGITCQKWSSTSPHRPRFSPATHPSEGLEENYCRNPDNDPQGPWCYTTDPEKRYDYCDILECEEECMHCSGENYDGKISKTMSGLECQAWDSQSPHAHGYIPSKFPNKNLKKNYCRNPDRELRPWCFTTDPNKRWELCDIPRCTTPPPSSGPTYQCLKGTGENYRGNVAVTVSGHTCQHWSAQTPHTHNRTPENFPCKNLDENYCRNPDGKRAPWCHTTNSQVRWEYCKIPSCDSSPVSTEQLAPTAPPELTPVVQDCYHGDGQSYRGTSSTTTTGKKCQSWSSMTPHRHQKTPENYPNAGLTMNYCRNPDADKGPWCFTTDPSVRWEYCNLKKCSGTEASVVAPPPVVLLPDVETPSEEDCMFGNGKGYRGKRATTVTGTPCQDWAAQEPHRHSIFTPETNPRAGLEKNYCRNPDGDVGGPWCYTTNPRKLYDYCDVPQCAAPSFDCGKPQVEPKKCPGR
# Sequence (P00747 581-810 limits assumed): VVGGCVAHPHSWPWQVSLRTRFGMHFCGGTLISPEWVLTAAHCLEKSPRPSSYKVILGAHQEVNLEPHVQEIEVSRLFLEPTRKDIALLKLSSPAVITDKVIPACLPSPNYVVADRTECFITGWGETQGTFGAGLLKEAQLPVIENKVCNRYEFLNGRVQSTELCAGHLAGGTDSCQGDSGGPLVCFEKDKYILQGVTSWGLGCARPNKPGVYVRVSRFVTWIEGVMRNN
# Run description: Ability to inhibit plasmin using human plasmin (quadratech) and Chromozym-PL (boehringer) as substrate
Measured property: Ki (µM)

(P) N=C(N)Nc1ncc(Cl)cc1C#Cc1ccccc1
(Q) COc1ccc(/C=C/c2cc(Cl)cnc2N=C(N)N)cc1
In: Min Ki? P | Q Please identify the chosen entry by its label.
Out: Q
(Q: 42.5 µM, P: 218 µM)
